Data provenance is patent US20230064983A1.

GI50 values for the compounds below.
# study target: Ba/F3-EGFR-WT cells (Homo sapiens, UniProt P00533)
# Sequence (P00533 whole entry, looked up, change not shown): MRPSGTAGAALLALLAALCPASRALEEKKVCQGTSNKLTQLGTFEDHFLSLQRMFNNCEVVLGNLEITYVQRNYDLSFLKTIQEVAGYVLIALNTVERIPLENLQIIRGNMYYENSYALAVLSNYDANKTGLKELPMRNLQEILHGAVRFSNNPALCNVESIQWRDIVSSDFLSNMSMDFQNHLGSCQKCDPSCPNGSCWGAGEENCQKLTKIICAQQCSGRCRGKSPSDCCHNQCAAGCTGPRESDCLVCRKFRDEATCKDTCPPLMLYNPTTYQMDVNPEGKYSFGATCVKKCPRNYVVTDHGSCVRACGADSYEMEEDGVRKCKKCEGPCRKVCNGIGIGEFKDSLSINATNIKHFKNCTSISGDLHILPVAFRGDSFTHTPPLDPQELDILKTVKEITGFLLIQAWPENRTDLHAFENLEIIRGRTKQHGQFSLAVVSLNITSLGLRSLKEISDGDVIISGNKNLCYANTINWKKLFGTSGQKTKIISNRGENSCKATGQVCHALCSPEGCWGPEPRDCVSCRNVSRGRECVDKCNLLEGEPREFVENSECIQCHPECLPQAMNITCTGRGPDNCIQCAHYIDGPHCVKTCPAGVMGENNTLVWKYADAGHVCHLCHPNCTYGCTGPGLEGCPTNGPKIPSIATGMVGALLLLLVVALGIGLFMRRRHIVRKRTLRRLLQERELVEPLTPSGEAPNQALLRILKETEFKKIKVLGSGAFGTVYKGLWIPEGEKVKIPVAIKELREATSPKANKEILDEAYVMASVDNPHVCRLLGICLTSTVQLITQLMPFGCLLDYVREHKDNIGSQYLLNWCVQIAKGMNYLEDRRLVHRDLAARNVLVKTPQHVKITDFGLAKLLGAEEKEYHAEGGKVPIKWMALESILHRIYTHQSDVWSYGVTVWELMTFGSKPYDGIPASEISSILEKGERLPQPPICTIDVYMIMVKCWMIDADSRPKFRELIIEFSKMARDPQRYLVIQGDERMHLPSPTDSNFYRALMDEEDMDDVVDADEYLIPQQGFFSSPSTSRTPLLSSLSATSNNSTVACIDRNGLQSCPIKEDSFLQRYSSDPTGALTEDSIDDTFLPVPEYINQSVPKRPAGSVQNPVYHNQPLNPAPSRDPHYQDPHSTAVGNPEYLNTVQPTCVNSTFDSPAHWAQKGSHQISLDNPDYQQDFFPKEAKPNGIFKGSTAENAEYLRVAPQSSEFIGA
# procedure text: Ba/F3 cell survival assay, wild type EGFR
# Assay type: cell-based
# assay conditions: Cell Titer-Glo, 48 h, with 10 ng/mL EGF; Table 4; read-out: BA/F3 (wild type) IC50
// return numeric value only (unit: nM, not printed)

Record excerpt, results attached:
compound | GI50 (nM)
COc1c(Cl)cccc1Nc1c(-c2ccncc2OCC2COCCO2)[nH]c2c1C(=O)NCC2C (single isomer, unassigned) [Example 36] | 963
COc1c(Cl)cccc1Nc1c(-c2ccncc2OCC2COCCO2)[nH]c2c1C(=O)NC1(CCC1)C2 (single isomer, unassigned) [Example 124] | 513
COc1c(Cl)cccc1Nc1c(-c2ccncc2OC[C@@H]2COCCN2C)[nH]c2c1C(=O)NCC2CCO (single isomer, unassigned) [Example 116] | 2030
COc1c(Cl)cccc1Nc1c(-c2ccncc2OC[C@@H]2COCCN2C)[nH]c2c1C(=O)NCC2CCF (single isomer, unassigned) [Example 90] | 1170
COc1c(Cl)cccc1Nc1c(-c2ccncc2OCC2COC(C)(C)CO2)[nH]c2c1C(=O)N[C@H](C)C2 (single isomer, unassigned) [Example 79] | 1910

We now examine a further compound.
Could you tell me which GI50 is on file for `C[C@@H]1Cc2[nH]c(-c3ccncc3OC[C@@H]3CCCO3)c(Nc3cccc(F)c3CC(F)F)c2C(=O)N1` ? 1170

* * *

# study target: EGFR with insertion SVD between D770 and N771 (mutEGFR D770_N771insSVD) (Homo sapiens, UniProt P00533, DUP768-770)
# Construct: amino acids R669 to A1210; made in house; host or cells: Sf9 insect cells (baculovirus)
# Sequence (P00533 other isoform, or with tags, fused parts or gaps DUP768-770): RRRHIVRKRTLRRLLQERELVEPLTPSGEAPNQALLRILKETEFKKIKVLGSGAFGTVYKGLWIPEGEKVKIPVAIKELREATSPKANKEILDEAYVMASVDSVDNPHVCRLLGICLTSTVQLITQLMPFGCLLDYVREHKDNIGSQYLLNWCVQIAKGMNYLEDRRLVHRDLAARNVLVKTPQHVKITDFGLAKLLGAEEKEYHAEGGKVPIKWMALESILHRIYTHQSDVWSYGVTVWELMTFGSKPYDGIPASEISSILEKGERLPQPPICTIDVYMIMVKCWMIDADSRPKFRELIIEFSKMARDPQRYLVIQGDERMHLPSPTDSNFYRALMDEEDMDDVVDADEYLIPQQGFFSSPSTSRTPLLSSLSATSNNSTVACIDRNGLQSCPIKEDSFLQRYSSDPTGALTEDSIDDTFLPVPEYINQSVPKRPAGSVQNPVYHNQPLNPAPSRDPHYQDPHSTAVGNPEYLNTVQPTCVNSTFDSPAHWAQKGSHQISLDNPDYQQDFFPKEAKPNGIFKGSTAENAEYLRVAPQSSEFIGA
# procedure text: Exon20-Mutant-EGFR(D770_N771insSVD) kinase assay (TR-FRET)
# Format: biochemical
# assay conditions: 2 mM ATP, Table 2
measured attribute: mutEGFR (D770_N771insSVD) kinase assay IC50 (nM)
// return numeric value only (unit: nM, not printed)

molecule | result value
COc1c(Cl)cccc1Nc1c(-c2ccncc2OC[C@@H]2CCCCO2)[nH]c2c1C(=O)NC1(CCC1)C2 | 0.51

Could you tell me which mutEGFR (D770_N771insSVD) kinase assay IC50 is on file for COc1c(Cl)cccc1Nc1c(-c2ccncc2OCCC(C)OC)[nH]c2c1C(=O)N[C@H](C)C2 (single isomer, unassigned) [Example 122] ? 0.122

Could you tell me which mutEGFR (D770_N771insSVD) kinase assay IC50 is on file for COc1c(Cl)cccc1Nc1c(-c2ccncc2OCC2COCCO2)[nH]c2c1C(=O)NCC2C (single isomer, unassigned) [Example 34] ? 0.175

* * *

# study target: Bub1 (Homo sapiens, UniProt O43683)
# Construct: catalytic domain of human Bub1 (amino acids 704-1085); His6 (N); made in house; host or cells: insect cells (Hi5)
# Sequence (O43683 704-1085): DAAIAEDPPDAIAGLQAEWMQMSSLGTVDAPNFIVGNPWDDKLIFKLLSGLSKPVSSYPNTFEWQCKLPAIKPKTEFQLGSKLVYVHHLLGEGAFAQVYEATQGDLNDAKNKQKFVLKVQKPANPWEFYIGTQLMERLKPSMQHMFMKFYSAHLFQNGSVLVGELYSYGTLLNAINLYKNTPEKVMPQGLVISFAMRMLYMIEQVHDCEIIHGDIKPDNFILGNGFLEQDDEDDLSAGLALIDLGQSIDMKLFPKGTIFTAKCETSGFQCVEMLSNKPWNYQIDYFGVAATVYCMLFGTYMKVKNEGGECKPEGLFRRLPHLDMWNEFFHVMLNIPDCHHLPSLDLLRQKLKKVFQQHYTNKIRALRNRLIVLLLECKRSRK
# procedure text: Bub1 high ATP kinase assay (TR-FRET)
# Format: biochemical
# assay conditions: Bub1 high ATP (2 mM) IC50, TR-FRET, 2 mM ATP; Table 3
Please respond with Condition met when measured IC50 is strictly beneath 4 µM, and with Condition not met in all other cases.

Before answering, review these 5 worked examples.
molecule | study target | label
COc1c(Cl)cccc1Nc1c(-c2ccncc2OCC2COCCO2)[nH]c2c1C(=O)NCC2C (single isomer, unassigned) [Example 36] | Bub1 (Homo sapiens, UniProt O43683) | Condition not met
COc1c(Cl)cccc1Nc1c(-c2ccncc2OCC2COC(C)(C)CO2)[nH]c2c1C(=O)N[C@H](C)C2 (mixture of isomers) [Example 77] | Bub1 (Homo sapiens, UniProt O43683) | Condition not met
Cc1c(Cl)cccc1Nc1c(-c2ccncc2OCC2COC(C)(C)CO2)[nH]c2c1C(=O)NCC2C (stereo not shown) [Example 62] | Bub1 (Homo sapiens, UniProt O43683) | Condition not met
COC(C)(C)COc1cnccc1-c1[nH]c2c(c1Nc1cccc(F)c1CC(F)F)C(=O)N[C@H](C)C2 [Example 65] | Bub1 (Homo sapiens, UniProt O43683) | Condition met
COc1c(Cl)cccc1Nc1c(-c2ccncc2OCC2COC(C)(C)CO2)[nH]c2c1C(=O)NCC2C (single isomer, unassigned) [Example 94] | Bub1 (Homo sapiens, UniProt O43683) | Condition not met

Hello, is IC50 of the following molecule strictly smaller than 4 µM? CCc1c(Cl)cccc1Nc1c(-c2ccncc2OC[C@@H]2CN(C)CCO2)[nH]c2c1C(=O)N[C@H](C)C2 [Example 91] Condition not met

Hello, is IC50 of the following molecule strictly smaller than 4 µM? COc1c(Cl)cccc1Nc1c(-c2ccncc2OCC2CCCCO2)[nH]c2c1C(=O)N[C@H](C)C2 (single isomer, unassigned) [Example 28] Condition not met
